So I've got a bunch of molecules here, and I need their Activity values.
assay: Phytotoxicity in Sonchus arvensis assessed as diameter of lesions at 2 mg/ml incubated for 120 hrs by leaf puncture assay; type: toxicity
Enter your answer as a number in mm; do not include the unit.

q: Which Activity is reported for this molecule? `C[C@@H]1CC[C@@H](O)[C@H](O)CCCC(=O)O1`
a: 0

q: Which Activity is reported for this molecule? `C[C@@H]1CC[C@@H](O)CCCCC(=O)O1`
a: 0

q: Which Activity is reported for this molecule? C[C@@H]1CC[C@@H](O)/C=C/C=C\C(=O)O1 [STAGONOLIDE E]
a: 1.7

q: Which Activity is reported for this molecule? `C[C@@H]1CCC(=O)CCCCC(=O)O1`
a: 0

q: Which Activity is reported for this molecule? `CC(=O)O[C@@H]1CC[C@@H](C)OC(=O)/C=C\[C@@H]2O[C@H]21`
a: 5.2

q: Which Activity is reported for this molecule? `C[C@@H]1C[C@H](O)/C=C/C(=O)/C=C\C(=O)O1`
a: 4.3

q: Which Activity is reported for this molecule? `CC(=O)O[C@H]1/C=C/C=C\C(=O)O[C@H](C)CC1`
a: 0

q: Which Activity is reported for this molecule? `C[C@H]1OC(=O)CC[C@H](O)/C=C/[C@H]2O[C@@H]12`
a: 0

q: Which Activity is reported for this molecule? `C[C@@H]1CC[C@@H](O)[C@@H]2O[C@H]2/C=C\C(=O)O1`
a: 5.5

q: Which Activity is reported for this molecule? CCC[C@H]1OC(=O)CCC/C=C/C(=O)[C@@H]1O [STAGONOLIDE]
a: 6.4

q: Which Activity is reported for this molecule? `C[C@H]1OC(=O)CCC(=O)C[C@H](O)[C@H]2O[C@H]21`
a: 1.1

q: Which Activity is reported for this molecule? `CCC[C@H]1OC(=O)CCC/C=C/[C@H](O)[C@@H]1O`
a: 4.8

These measurements were taken from ChEMBL document CHEMBL5335855.
